measurementProtocol: Inhibitory concentration against human T-cell leukemic cell line ([…]) in vitro
Type: functional
measuredProperty: IC50 (µg/mL)
Give just the number in µg/mL; leave the unit off.

CC[C@]1(O)C[C@H]2CN(CCc3c([nH]c4ccccc34)[C@@](C(=O)OC)(c3cc4c(cc3OC)N(C=O)[C@H]3[C@@](O)(C(=O)OC)[C@H](OC(C)=O)[C@]5(CC)C=CCN6CC[C@]43[C@@H]65)C2)C1; 0.025
CC[C@]12CN3CCc4c([nH]c5ccccc45)[C@@](C(=O)OC)(c4cc5c(cc4OC)N(C)[C@H]4[C@@](O)(C(=O)OC)[C@H](OC(C)=O)[C@]6(CC)C=CCN7CC[C@]54[C@@H]76)C[C@@H](C3)[C@H]1O2.CC[C@]12CN3CCc4c([nH]c5ccccc45)[C@@](C(=O)OC)(c4cc5c(cc4OC)N(C)[C@H]4[C@@](O)(C(=O)OC)[C@H](OC(C)=O)[C@]6(CC)C=CCN7CC[C@]54[C@@H]76)C[C@@H](C3)[C@H]1O2.O=S(=O)(O)O [VINLEUROSINE SULFATE]; 0.4
CCC(=O)C[C@@H]1CN(C=O)CCc2c([nH]c3ccccc23)[C@@](C(=O)OC)(c2cc3c(cc2OC)N(C)[C@H]2[C@](O)(C(=O)OC)[C@H](OC(C)=O)[C@]4(CC)C=CCN5CC[C@]32[C@@H]54)C1; 7.7

Please turn your attention to the following entry.
**Query** I'd like to know its IC50. The molecule in question is CC[C@]1(O)C[C@@H]2CN(CCc3c([nH]c4ccccc34)[C@@](C(=O)OC)(c3cc4c(cc3OC)N(C)[C@H]3[C@@](O)(C(=O)OC)[C@H](OC(C)=O)[C@]5(CC)C=CCN6CC[C@]43[C@@H]65)C2)C1
**Result** 0.1
